Tested on: Pseudomonas aeruginosa ATCC 27853
Test: MBEC assay, biofilm elimination, MBEC bioFILM PA panel
Type: cell-based
Settings: with 0.05% compound 3 in 5% EtOH/PBS
outcome measure: MBEC-Biofilm Elimination, With 0.05% compound 3 in 5% EtOH/PBS

C[C@@H](O)[C@H]1C(=O)N2C(C(=O)O)=C(S[C@@H]3CN[C@H](C(=O)N(C)C)C3)[C@H](C)[C@H]12	1
CO/N=C(\C(=O)N[C@@H]1C(=O)N2C(C(=O)[O-])=C(C[N+]3(C)CCCC3)CS[C@H]12)c1csc(N)n1 [CPE, cefepime]	>4
O=C(O)c1cn(C2CC2)c2cc(N3CCNCC3)c(F)cc2c1=O	>0.5
NC[C@H]1O[C@H](O[C@H]2[C@H](O)[C@@H](O[C@H]3O[C@H](CO)[C@@H](O)[C@H](N)[C@H]3O)[C@H](N)C[C@@H]2N)[C@H](N)C[C@@H]1O	>2
O=C(N[C@H](CO)[C@H](O)c1ccc([N+](=O)[O-])cc1)C(Cl)Cl	>4
NCC[C@H](O)C(=O)N[C@@H]1C[C@H](N)[C@@H](O[C@H]2O[C@H](CN)[C@@H](O)[C@H](O)[C@H]2O)[C@H](O)[C@H]1O[C@H]1O[C@H](CO)[C@@H](O)[C@H](N)[C@H]1O	>8
C[C@H]1[C@H](NC(=O)/C(=N\OC(C)(C)C(=O)O)c2csc(N)n2)C(=O)N1S(=O)(=O)O	>4
CC(C)(O/N=C(\C(=O)N[C@@H]1C(=O)N2C(C(=O)[O-])=C(C[n+]3ccccc3)CS[C@H]12)c1csc(N)n1)C(=O)O	>4

----------
System: Pseudomonas aeruginosa ATCC 27853
Experiment: MBEC assay, biofilm inhibition (prevention of biofilm formation), MBEC bioFILM PA panel
Format: cell-based
Set-up: unit not given here
Details: antibiotic alone
Below, each of the molecules is paired with its reported MBEC-Biofilm Inhibition, Without compound 2 value.
outcome measure: MBEC-Biofilm Inhibition, Without compound 2

O=C(N[C@H](CO)[C@H](O)c1ccc([N+](=O)[O-])cc1)C(Cl)Cl	>4
NC[C@H]1O[C@H](O[C@H]2[C@H](O)[C@@H](O[C@H]3O[C@H](CO)[C@@H](O)[C@H](N)[C@H]3O)[C@H](N)C[C@@H]2N)[C@H](N)C[C@@H]1O	>2
C[C@H]1[C@H](NC(=O)/C(=N\OC(C)(C)C(=O)O)c2csc(N)n2)C(=O)N1S(=O)(=O)O	>4
O=C(O)c1cn(C2CC2)c2cc(N3CCNCC3)c(F)cc2c1=O	>0.5
CO/N=C(\C(=O)N[C@@H]1C(=O)N2C(C(=O)[O-])=C(C[N+]3(C)CCCC3)CS[C@H]12)c1csc(N)n1 [CPE, cefepime]	>4
C[C@@H](O)[C@H]1C(=O)N2C(C(=O)O)=C(S[C@@H]3CN[C@H](C(=O)N(C)C)C3)[C@H](C)[C@H]12	>2
NCC[C@H](O)C(=O)N[C@@H]1C[C@H](N)[C@@H](O[C@H]2O[C@H](CN)[C@@H](O)[C@H](O)[C@H]2O)[C@H](O)[C@H]1O[C@H]1O[C@H](CO)[C@@H](O)[C@H](N)[C@H]1O	>8
CC(C)(O/N=C(\C(=O)N[C@@H]1C(=O)N2C(C(=O)[O-])=C(C[n+]3ccccc3)CS[C@H]12)c1csc(N)n1)C(=O)O	>4

----------
Below, each of the compounds is paired with its reported MBEC-Biofilm Elimination, With 0.05% compound 6 in 5% EtOH/PBS value.
Test system: Pseudomonas aeruginosa ATCC 27853
Assay: MBEC assay, biofilm elimination, MBEC bioFILM PA panel
Format: cell-based
Settings: with 0.05% compound 6 in 5% EtOH/PBS
outcome measure: MBEC-Biofilm Elimination, With 0.05% compound 6 in 5% EtOH/PBS

O=C(N[C@H](CO)[C@H](O)c1ccc([N+](=O)[O-])cc1)C(Cl)Cl	>4
CO/N=C(\C(=O)N[C@@H]1C(=O)N2C(C(=O)[O-])=C(C[N+]3(C)CCCC3)CS[C@H]12)c1csc(N)n1 [CPE, cefepime]	>4
O=C(O)c1cn(C2CC2)c2cc(N3CCNCC3)c(F)cc2c1=O	>0.5
C[C@H]1[C@H](NC(=O)/C(=N\OC(C)(C)C(=O)O)c2csc(N)n2)C(=O)N1S(=O)(=O)O	>4
CC(C)(O/N=C(\C(=O)N[C@@H]1C(=O)N2C(C(=O)[O-])=C(C[n+]3ccccc3)CS[C@H]12)c1csc(N)n1)C(=O)O	>4

----------
Below, each of the molecules is paired with its reported MBEC-Biofilm Elimination, With 0.01% compound 1 in 5% EtOH/PBS value.
Tested on: Pseudomonas aeruginosa ATCC 27853
Test: MBEC assay, biofilm elimination, MBEC bioFILM PA panel
Type: cell-based
Set-up: unit not given here
Details: with 0.01% compound 1 in 5% EtOH/PBS
outcome measure: MBEC-Biofilm Elimination, With 0.01% compound 1 in 5% EtOH/PBS

NC[C@H]1O[C@H](O[C@H]2[C@H](O)[C@@H](O[C@H]3O[C@H](CO)[C@@H](O)[C@H](N)[C@H]3O)[C@H](N)C[C@@H]2N)[C@H](N)C[C@@H]1O [TO, tobramycin]	>2
O=C(O)c1cn(C2CC2)c2cc(N3CCNCC3)c(F)cc2c1=O [CP, ciprofloxacin]	>0.5
NCC[C@H](O)C(=O)N[C@@H]1C[C@H](N)[C@@H](O[C@H]2O[C@H](CN)[C@@H](O)[C@H](O)[C@H]2O)[C@H](O)[C@H]1O[C@H]1O[C@H](CO)[C@@H](O)[C@H](N)[C@H]1O [AK, amikacin]	>8
C[C@@H](O)[C@H]1C(=O)N2C(C(=O)O)=C(S[C@@H]3CN[C@H](C(=O)N(C)C)C3)[C@H](C)[C@H]12 [MER, meropenem]	>1
O=C(N[C@H](CO)[C@H](O)c1ccc([N+](=O)[O-])cc1)C(Cl)Cl [C, chloramphenicol]	>4
C[C@H]1[C@H](NC(=O)/C(=N\OC(C)(C)C(=O)O)c2csc(N)n2)C(=O)N1S(=O)(=O)O [AZT, astreonam]	>4
CC(C)(O/N=C(\C(=O)N[C@@H]1C(=O)N2C(C(=O)[O-])=C(C[n+]3ccccc3)CS[C@H]12)c1csc(N)n1)C(=O)O [CAZ, ceftazidime]	>4
CO/N=C(\C(=O)N[C@@H]1C(=O)N2C(C(=O)[O-])=C(C[N+]3(C)CCCC3)CS[C@H]12)c1csc(N)n1 [CPE, cefepime]	>4

----------
System: Pseudomonas aeruginosa ATCC 27853
Test: MBEC assay, biofilm inhibition (prevention of biofilm formation), MBEC bioFILM PA panel
Assay type: cell-based
Set-up: unit not given here
Details: antibiotic alone
Below, each of the molecules is paired with its reported MBEC-Biofilm Inhibition, Without compound 9 value.
outcome measure: MBEC-Biofilm Inhibition, Without compound 9

O=C(N[C@H](CO)[C@H](O)c1ccc([N+](=O)[O-])cc1)C(Cl)Cl [C, chloramphenicol]	>4
C[C@H]1[C@H](NC(=O)/C(=N\OC(C)(C)C(=O)O)c2csc(N)n2)C(=O)N1S(=O)(=O)O [AZT, astreonam]	>4
C[C@@H](O)[C@H]1C(=O)N2C(C(=O)O)=C(S[C@@H]3CN[C@H](C(=O)N(C)C)C3)[C@H](C)[C@H]12 [MER, meropenem]	>2
